Kd by entry:
target.desc: T1, MET Proto-Oncogene, Receptor Tyrosine Kinase (MET), on cells (human, UniProt P08581 25-1390)
T1 construct: also called cMET; c-Met
assay.text: flow cytometry titration on Detroit-562 cells (125K/cell), pH 7.4; printed as Affinity at pH 7.4
value.kind: Kd (nM)

- binder: "MYT5351 (antibody, V domains shown, P3D12 variant) VH: QVQLVQSGAEVKKPGASVKVSCKASGYTFTSYWMHWVKQAPGQGLDWIGHIKPSTDNTEYNQKFKDKATLTADKSTSTAYMELSSLRSEDTAVYYCARSYGNYPLMDYWGQGTTVTVSS VL: QIVLTQSPAILSLSPGERATLSCSASSSVTSNYLYWYQQKPGSSPKLLIYSHSNLASGVPARFSGSGSGTSYTLTISSLEAEDAASYFCHQWSSYPPTFGSGTKLEIKR"
  endpoint.result: 0.486
- binder: "MYT4837 (antibody, V domains shown, Emibetuzumab variant) VH: QVQLVQSGAEVKKPGASVKVSCKASGYTFTHYYMHWVRQAPGQGLEWMGRVNPHRRHTTYNQKFEGRVTMTTDTSTSTAYMELRSLRSDDTAVYYCARANWLDYWGQGTTVTVSS VL: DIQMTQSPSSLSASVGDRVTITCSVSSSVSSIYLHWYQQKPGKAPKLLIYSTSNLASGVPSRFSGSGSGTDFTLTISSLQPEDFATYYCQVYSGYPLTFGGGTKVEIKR"
  endpoint.result: 1.02
- binder: "MYT4325 (antibody, V domains shown, P3D12 variant) VH: QVQLVQSGAEVKKPGASVKVSCKASGYTFTSYWMHWVKQAPGQGLDWIGYIKPSTDNTHYNQKFKDKATLTADKSTSTAYMELSSLRSEDTAVYYCARSYGHYPLMHYWGQGTTVTVSS VL: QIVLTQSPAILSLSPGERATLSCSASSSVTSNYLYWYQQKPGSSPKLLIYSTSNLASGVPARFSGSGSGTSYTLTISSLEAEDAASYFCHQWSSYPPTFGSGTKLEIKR"
  endpoint.result: 0.903
- binder: "MYT5309 (antibody, V domains shown, Emibetuzumab variant) VH: QVQLVQSGAEVKKPGASVKVSCKASGYTFTHYYMHWVRQAPGQGLEWMGRVNPNRRGTTYNQKFEGRVTMTTDTSTSTAYMELRSLRSDDTAVYYCARANWLDYWGQGTTVTVSS VL: DIQMTQSPSSLSASVGDRVTITCSVSSSVSSIYLHWYQQKPGKAPKLLIYSTSNLASGVPSRFSGSGSGTDFTLTISSLQPEDFATYYCQHYSGYPLTFGGGTKVEIKR"
  endpoint.result: 1.34
